Target: RAC-alpha serine/threonine-protein kinase (Homo sapiens)
Sequence (P31749 whole entry): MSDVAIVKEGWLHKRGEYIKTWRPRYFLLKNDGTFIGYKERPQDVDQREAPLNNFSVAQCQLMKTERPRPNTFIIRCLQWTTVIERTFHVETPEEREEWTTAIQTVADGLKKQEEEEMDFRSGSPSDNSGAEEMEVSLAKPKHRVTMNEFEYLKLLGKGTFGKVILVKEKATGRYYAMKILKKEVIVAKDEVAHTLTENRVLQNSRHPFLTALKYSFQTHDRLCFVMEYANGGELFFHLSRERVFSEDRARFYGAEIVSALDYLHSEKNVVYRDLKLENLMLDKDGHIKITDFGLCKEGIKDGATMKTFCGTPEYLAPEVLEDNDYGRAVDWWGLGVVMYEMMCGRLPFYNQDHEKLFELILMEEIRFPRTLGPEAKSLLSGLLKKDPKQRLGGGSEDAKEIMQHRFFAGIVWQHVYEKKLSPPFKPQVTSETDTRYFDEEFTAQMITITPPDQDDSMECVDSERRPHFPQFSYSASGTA
Test: Inhibition of Akt1 by cell based assay
Endpoint: IC50 (nM)
Give the quantity in nM, number only.

Known IC50 results, listed for orientation:
>  <Smiles Record>
OCCNCc1nnc2c3cc(-c4ccccc4)c(-c4ccc(CN5CCC(c6n[nH]c(-c7ccccn7)n6)CC5)cc4)nc3ccn12

>  <Endpoint>
IC50

>  <Unit>
nM

>  <Result Number>
41.8

$$$$
>  <Smiles Record>
Nc1nnc2c3cc(-c4ccccc4)c(-c4ccc(CN5CCC(n6cnc(-c7ccccn7)c6)CC5)cc4)nc3ccn12

>  <Endpoint>
IC50

>  <Unit>
nM

>  <Result Number>
18.3

$$$$
>  <Smiles Record>
Sc1nnc2c3cc(-c4ccccc4)c(-c4ccc(CN5CCC(c6n[nH]c(-c7ccccn7)n6)CC5)cc4)nc3ccn12

>  <Endpoint>
IC50

>  <Unit>
nM

>  <Result Number>
17

$$$$
>  <Smiles Record>
CN1CCN(Cc2nnc3c4cc(-c5ccccc5)c(-c5ccc(CN6CCC(c7n[nH]c(-c8ccccn8)n7)CC6)cc5)nc4ccn23)CC1

>  <Endpoint>
IC50

>  <Unit>
nM

>  <Result Number>
62.5

$$$$
>  <Smiles Record>
Cc1nnc2c3cc(-c4ccccc4)c(-c4ccc(CN5CCC(c6n[nH]c(-c7ccccn7)n6)CC5)cc4)nc3ccn12

>  <Endpoint>
IC50

>  <Unit>
nM

>  <Result Number>
24.6

$$$$

Query: Fill in the blank: the reported IC50 of Oc1nnc2c3cc(-c4ccccc4)c(-c4ccc(CN5CCC(c6n[nH]c(-c7ccccn7)n6)CC5)cc4)nc3ccn12 is ____.
Response: 27

====

Assay: Drug level in blood of nude mouse xenografted with […] at 18 mg/mL after 20 hrs
Type: ADME, tissue-based
Details: whole blood, read-out: Drug uptake
Endpoint: concentration at 20 h

Query: Fill in the blank: the reported concentration at 20 h of c1ccc(-c2cc3c(ccn4cnnc34)nc2-c2ccc(CN3CCC(c4n[nH]c(-c5ccccn5)n4)CC3)cc2)cc1 is ____.
Response: 1800 nM

====

Target: RAC-beta serine/threonine-protein kinase (Homo sapiens, UniProt P31751)
Sequence (P31751 whole entry): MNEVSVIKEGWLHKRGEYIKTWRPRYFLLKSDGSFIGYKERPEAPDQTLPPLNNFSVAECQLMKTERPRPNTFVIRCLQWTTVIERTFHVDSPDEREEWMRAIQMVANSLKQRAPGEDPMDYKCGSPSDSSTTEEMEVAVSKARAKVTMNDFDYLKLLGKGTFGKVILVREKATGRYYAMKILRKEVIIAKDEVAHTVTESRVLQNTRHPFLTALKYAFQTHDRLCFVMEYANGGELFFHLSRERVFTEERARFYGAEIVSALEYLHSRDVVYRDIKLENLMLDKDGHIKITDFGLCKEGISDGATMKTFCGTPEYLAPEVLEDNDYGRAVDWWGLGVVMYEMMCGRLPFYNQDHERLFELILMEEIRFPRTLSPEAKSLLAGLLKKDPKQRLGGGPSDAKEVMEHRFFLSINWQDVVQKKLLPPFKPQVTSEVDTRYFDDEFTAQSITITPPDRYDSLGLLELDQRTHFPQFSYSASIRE
Assay: Inhibition of Akt2 by cell based assay
pIC50: −log10 of the molar value.
Threshold rule: pIC50 greater than or equal to 7 is Condition met; below that, Condition not met.

Consider the following illustrative entries.
>  <Smiles Record>
c1ccc(-c2cc3c(ccn4cnnc34)nc2-c2ccc(CN3CCC(c4n[nH]c(-c5ccccn5)n4)CC3)cc2)cc1

>  <Class Label>
Condition met

$$$$
>  <Smiles Record>
NC(=O)Nc1nnc2c3cc(-c4ccccc4)c(-c4ccc(CN5CCC(c6n[nH]c(-c7ccccn7)n6)CC5)cc4)nc3ccn12

>  <Class Label>
Condition not met

$$$$
>  <Smiles Record>
Oc1nnc2c3cc(-c4ccccc4)c(-c4ccc(CN5CCC(c6n[nH]c(-c7ccccn7)n6)CC5)cc4)nc3ccn12

>  <Class Label>
Condition not met

$$$$
>  <Smiles Record>
OCCNCc1nnc2c3cc(-c4ccccc4)c(-c4ccc(CN5CCC(c6n[nH]c(-c7ccccn7)n6)CC5)cc4)nc3ccn12

>  <Class Label>
Condition not met

$$$$
>  <Smiles Record>
ClCc1nnc2c3cc(-c4ccccc4)c(-c4ccc(CN5CCC(c6n[nH]c(-c7ccccn7)n6)CC5)cc4)nc3ccn12

>  <Class Label>
Condition not met

$$$$

Query: Decide: is the reported value of pIC50 for CN1CCN(Cc2nnc3c4cc(-c5ccccc5)c(-c5ccc(CN6CCC(c7n[nH]c(-c8ccccn8)n7)CC6)cc5)nc4ccn23)CC1 equal to or greater than 7?
Response: Condition not met

Query: Decide: is the reported value of pIC50 for Cc1nnc2c3cc(-c4ccccc4)c(-c4ccc(CN5CCC(c6n[nH]c(-c7ccccn7)n6)CC5)cc4)nc3ccn12 equal to or greater than 7?
Response: Condition not met

Query: Decide: is the reported value of pIC50 for Nc1nnc2c3cc(-c4ccccc4)c(-c4ccc(CN5CCC(c6n[nH]c(-c7ccccn7)n6)CC5)cc4)nc3ccn12 equal to or greater than 7?
Response: Condition met
